Target: T1, cynomolgus monkey IL-21R expressed on CHO cells (cynomolgus monkey)
T1 construct: whole, on cells
Assay: cell ELISA on transfected CHO cells, 13 nM IgG
Description: A subset of binding proteins was tested for binding to rat, cynomolgus monkey, human IL-21R, or human IL-2R-γ common subunit expressed transiently on the surfaces of CHO-PA-Dukx cells. Cells were transfected 48 hr prior to the assay. […] Cells were incubated with 100 μl TMB until the color reaction reached saturation, stopped with 100 μl of 0.18 M H₂SO₄, and read at A450 on a Perkin Elmer ENVISION™ plate reader.
MEASUREMENT TYPE: A450 at 13 nM Ab in cell ELISA (A450)
Your answer is read as A450, so omit the unit and give the number.

1. AbP (antibody, human IgG1, V domains shown, Human IgG1 triple-mutant (L234A, L235A, G237A); Framework limits derived; also called VHP/VL20; VHPTM/VL20) VH: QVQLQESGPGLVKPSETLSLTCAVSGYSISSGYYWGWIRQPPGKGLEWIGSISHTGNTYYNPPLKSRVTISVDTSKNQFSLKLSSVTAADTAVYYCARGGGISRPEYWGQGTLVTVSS VL: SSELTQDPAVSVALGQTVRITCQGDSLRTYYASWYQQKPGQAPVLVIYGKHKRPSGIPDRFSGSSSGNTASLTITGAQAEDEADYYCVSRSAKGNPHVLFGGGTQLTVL = 1.31

Okay, now this binder:
A450 at 13 nM Ab in cell ELISA lookup needed for AbH (antibody, human IgG1, V domains shown, Full-length human IgG1 / human lambda, transient, conditioned medium; Framework limits derived; also called VHP/VL19) VH: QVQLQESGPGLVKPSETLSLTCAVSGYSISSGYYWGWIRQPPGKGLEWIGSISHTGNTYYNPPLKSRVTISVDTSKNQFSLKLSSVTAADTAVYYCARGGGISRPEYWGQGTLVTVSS VL: SSELTQDPAVSVALGQTVRITCQGDSLRTYYASWYQQKPGQAPVLVIYGKHKRPSGIPDRFSGSSSGNTASLTITGAQAEDEADYYCVARAVRGNPHVLFGGGTQLTVL , thanks.
1.32
